Reported values: IC50 for Macrophage colony-stimulating factor 1 receptor (Homo sapiens), one per item.
assay_metric: IC50 (µM)

1. Cc1c2ccc(N(C)c3ccnc(Nc4ccc(C(=O)Nc5ccccc5N)cc4)n3)cc2nn1C; 0.351
2. Cc1c2ccc(N(C)c3ccnc(Nc4ccc(C(=O)NCCCCCCC(=O)NO)cc4)n3)cc2nn1C; 0.581

---

experiment: AUC (0 to t) in Sprague-Dawley rat at 2 mg/kg, iv by LC-MS/MS analysis; assay type: ADME, organism-based; conditions: in vivo
assay_metric: AUC(0-t) (ng·h/mL)

1) Cc1c2ccc(N(C)c3ccnc(Nc4ccc(C(=O)Nc5ccccc5N)cc4)n3)cc2nn1C; 2380

---

molecular target: Histone deacetylase; assay type: protein assay, Homo sapiens
assay_metric: log10 of IC50 (log10 of the value in µM)

1. Cc1c2ccc(N(C)c3ccnc(Nc4cccc(C(=O)Nc5ccccc5N)c4)n3)cc2nn1C; 1.33
2. Cc1c2ccc(N(C)c3ccnc(Nc4ccc(C(=O)NO)cc4)n3)cc2nn1C; 1.05
3. Cc1c2ccc(N(C)c3ccnc(Nc4ccc(C(=O)NCCCCCCCC(=O)Nc5ccccc5N)cc4)n3)cc2nn1C; 0.94
4. Cc1c2ccc(N(C)c3ccnc(Nc4ccc(C(=O)NCCCCCC(=O)NO)cc4)n3)cc2nn1C; -1.77
5. Cc1c2ccc(N(C)c3ccnc(Nc4ccc(C(=O)NCCCC(=O)NO)cc4)n3)cc2nn1C; 1.30
6. Cc1c2ccc(N(C)c3ccnc(Nc4ccc(C(=O)Nc5ccccc5N)cc4)n3)cc2nn1C; 0.66
7. Cc1c2ccc(N(C)c3ccnc(Nc4ccc(C(=O)NCCCCCCC(=O)Nc5ccccc5N)cc4)n3)cc2nn1C; 0.70

---

Reported IC50 values follow for various molecules
target: Histone deacetylase; assay type: protein assay, Homo sapiens
assay_metric: IC50

1) Cc1c2ccc(N(C)c3ccnc(Nc4cccc(C(=O)NO)c4)n3)cc2nn1C; > 20 µM
2) Cc1c2ccc(N(C)c3ccnc(Nc4ccc(C(=O)NCC(=O)Nc5ccccc5N)cc4)n3)cc2nn1C; > 20 µM
3) Cc1c2ccc(N(C)c3ccnc(Nc4ccc(C(=O)NCCC(=O)NO)cc4)n3)cc2nn1C; > 20 µM

Reference source: ChEMBL document CHEMBL4190394
